These measurements were taken from paper PMC8470274.

biological target: UGT1A1 (Homo sapiens, UniProt P22309)
Sequence (P22309 26-533): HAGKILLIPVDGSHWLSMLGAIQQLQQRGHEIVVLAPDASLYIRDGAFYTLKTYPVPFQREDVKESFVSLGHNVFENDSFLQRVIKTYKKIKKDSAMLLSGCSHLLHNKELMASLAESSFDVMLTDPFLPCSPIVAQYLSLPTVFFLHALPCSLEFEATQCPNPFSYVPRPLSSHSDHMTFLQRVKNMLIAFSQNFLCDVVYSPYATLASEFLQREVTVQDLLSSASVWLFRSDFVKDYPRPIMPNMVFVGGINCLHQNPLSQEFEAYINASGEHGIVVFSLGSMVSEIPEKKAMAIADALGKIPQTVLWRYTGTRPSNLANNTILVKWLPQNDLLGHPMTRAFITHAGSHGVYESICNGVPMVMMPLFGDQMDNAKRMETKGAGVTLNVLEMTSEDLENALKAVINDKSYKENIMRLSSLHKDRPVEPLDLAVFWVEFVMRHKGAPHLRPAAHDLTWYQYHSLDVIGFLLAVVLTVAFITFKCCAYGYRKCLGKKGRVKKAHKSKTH
pKi: −log10 of the molar value.
test readout: pKi

{"columns": ["compound", "obs value"],
 "data": [
  ["Oc1ccc(/C=C/c2cc(O)cc(O)c2)cc1 [A, 3,5,4′-Trihydroxystilbene]", 4.56]
]}

* * *

tested on: CYP3A; construct: gene CYP3A4; native CYP3A in pooled human liver microsomes, read by midazolam 1'-hydroxylation (nifedipine as second probe); test: HLM substrate cocktail, LC-MS/MS; type: biochemical, Homo sapiens; settings: midazolam 0.1 µM; NADPH-generating system; 0.25 mg/mL HLM; 37 °C; without 30 min preincubation; read-out: Trans-resveratrol (μM) / Without Preincubation
test readout: IC50 (µM)

{"columns": ["compound", "tested target", "obs value"],
 "data": [
  ["Oc1ccc(/C=C/c2cc(O)cc(O)c2)cc1 [A, 3,5,4′-Trihydroxystilbene]", "CYP3A", 29.2]
]}

* * *

molecular target: CYP2A6 (Homo sapiens); construct: native enzyme in pooled human liver microsomes, read by coumarin 7-hydroxylation; test: HLM substrate cocktail, LC-MS/MS; assay type: biochemical; settings: coumarin 1 µM; NADPH-generating system; 0.25 mg/mL HLM; 37 °C; without 30 min preincubation; read-out: Trans-resveratrol (μM) / Without Preincubation
Sequence (P11509 whole entry): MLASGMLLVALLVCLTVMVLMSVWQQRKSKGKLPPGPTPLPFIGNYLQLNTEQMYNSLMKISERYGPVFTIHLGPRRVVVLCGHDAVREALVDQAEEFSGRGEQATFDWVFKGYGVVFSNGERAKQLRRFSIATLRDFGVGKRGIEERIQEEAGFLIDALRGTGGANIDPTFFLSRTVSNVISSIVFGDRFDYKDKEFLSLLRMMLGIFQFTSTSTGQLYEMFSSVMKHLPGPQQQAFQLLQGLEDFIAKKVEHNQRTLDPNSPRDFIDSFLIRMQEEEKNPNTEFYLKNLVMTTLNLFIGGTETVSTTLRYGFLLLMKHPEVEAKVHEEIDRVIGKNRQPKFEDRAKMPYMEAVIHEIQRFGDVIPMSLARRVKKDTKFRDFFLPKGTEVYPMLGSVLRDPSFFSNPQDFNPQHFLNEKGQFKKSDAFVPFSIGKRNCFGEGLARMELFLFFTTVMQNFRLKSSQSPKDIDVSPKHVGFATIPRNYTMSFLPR
This section presents molecules with their documented IC50 values.

{"columns": ["molecule", "IC50"],
 "data": [
  ["Oc1ccc(/C=C/c2cc(O)cc(O)c2)cc1 [A, 3,5,4′-Trihydroxystilbene]", "> 50 µM"],
  ["Oc1ccc(/C=C\\c2cc(O)cc(O)c2)cc1 [B, 3,5,4′-Trihydroxystilbene]", "> 50 µM"]
]}

* * *

The following molecules have recorded IC50 on UGT1A6 (Homo sapiens).
Sequence (P19224 27-532): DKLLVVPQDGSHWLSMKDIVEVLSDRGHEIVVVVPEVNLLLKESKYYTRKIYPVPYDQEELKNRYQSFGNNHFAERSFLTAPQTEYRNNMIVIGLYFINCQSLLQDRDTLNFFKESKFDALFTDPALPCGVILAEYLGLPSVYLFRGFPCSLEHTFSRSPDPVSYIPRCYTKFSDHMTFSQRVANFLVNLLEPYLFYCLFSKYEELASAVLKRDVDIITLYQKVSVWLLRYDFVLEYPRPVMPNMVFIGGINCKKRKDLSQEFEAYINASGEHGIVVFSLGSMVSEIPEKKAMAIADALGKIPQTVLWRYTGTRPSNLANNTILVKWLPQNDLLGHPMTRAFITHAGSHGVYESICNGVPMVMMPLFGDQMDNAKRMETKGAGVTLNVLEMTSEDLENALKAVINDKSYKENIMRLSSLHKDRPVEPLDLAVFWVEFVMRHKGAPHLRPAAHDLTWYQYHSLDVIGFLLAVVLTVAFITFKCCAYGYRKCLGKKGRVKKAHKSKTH
test readout: IC50

{"columns": ["molecule", "test readout", "obs value"],
 "data": [
  ["Oc1ccc(/C=C\\c2cc(O)cc(O)c2)cc1 [B, 3,5,4′-Trihydroxystilbene]", "IC50", "> 50 µM"],
  ["Oc1ccc(/C=C/c2cc(O)cc(O)c2)cc1 [A, 3,5,4′-Trihydroxystilbene]", "IC50", "> 50 µM"]
]}

* * *

target: UGT1A1 (Homo sapiens); construct: native enzyme in pooled human liver microsomes (alamethicin-treated), read by SN-38 glucuronidation; assay: HLM UGT substrate cocktail, LC-MS/MS; assay type: biochemical; conditions: SN-38 0.5 µM; UDPGA 5 mM; alamethicin; 0.25 mg/mL HLM; 37 °C; read-out: Cis-Resveratrol
test readout: IC50

{"columns": ["compound", "obs value"],
 "data": [
  ["Oc1ccc(/C=C\\c2cc(O)cc(O)c2)cc1 [B, 3,5,4′-Trihydroxystilbene]", "> 50 µM"]
]}

* * *

Target: UGT2B7 (Homo sapiens)
Sequence (P16662 24-529): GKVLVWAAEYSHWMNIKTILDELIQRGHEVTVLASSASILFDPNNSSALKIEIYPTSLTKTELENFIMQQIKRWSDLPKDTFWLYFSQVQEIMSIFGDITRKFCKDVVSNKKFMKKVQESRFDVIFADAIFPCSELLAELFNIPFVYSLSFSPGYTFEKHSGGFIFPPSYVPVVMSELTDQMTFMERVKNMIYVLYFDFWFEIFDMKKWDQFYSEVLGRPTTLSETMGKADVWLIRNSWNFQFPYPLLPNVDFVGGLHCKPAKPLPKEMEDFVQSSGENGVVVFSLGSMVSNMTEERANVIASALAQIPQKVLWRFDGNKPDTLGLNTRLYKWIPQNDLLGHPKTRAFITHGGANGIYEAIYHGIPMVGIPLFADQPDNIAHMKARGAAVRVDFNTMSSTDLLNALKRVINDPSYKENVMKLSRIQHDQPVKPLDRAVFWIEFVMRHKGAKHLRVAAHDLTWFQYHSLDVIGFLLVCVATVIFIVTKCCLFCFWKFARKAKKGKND
IC50 for assorted compounds
test readout: IC50

{"columns": ["compound", "tested target", "obs value"],
 "data": [
  ["Oc1ccc(/C=C\\c2cc(O)cc(O)c2)cc1 [B, 3,5,4′-Trihydroxystilbene]", "UGT2B7 (Homo sapiens)", "> 50 µM"],
  ["Oc1ccc(/C=C/c2cc(O)cc(O)c2)cc1 [A, 3,5,4′-Trihydroxystilbene]", "UGT2B7 (Homo sapiens)", "> 50 µM"]
]}

* * *

target: CYP3A; construct: native CYP3A in pooled human liver microsomes, read by midazolam 1'-hydroxylation (nifedipine as second probe); assay: HLM inhibition kinetics, Dixon / Lineweaver-Burk, LC-MS/MS; details: midazolam 0.1-2 µM; NADPH-generating system; without preincubation; noncompetitive; read-out: trans-Resveratrol / Without Preincubation / Ki
test readout: Ki

{"columns": ["molecule", "tested target", "obs value"],
 "data": [
  ["Oc1ccc(/C=C/c2cc(O)cc(O)c2)cc1 [A, 3,5,4′-Trihydroxystilbene]", "CYP3A", "23.8 µM"]
]}
